Where do these numbers come from? They come from ChEMBL document CHEMBL1909046.

Molecular target: Muscarinic acetylcholine receptor M5 (Homo sapiens, UniProt P08912); note: in other assays of this panel Not Active means under 50% inhibition at 10 µM
Sequence (P08912 whole entry): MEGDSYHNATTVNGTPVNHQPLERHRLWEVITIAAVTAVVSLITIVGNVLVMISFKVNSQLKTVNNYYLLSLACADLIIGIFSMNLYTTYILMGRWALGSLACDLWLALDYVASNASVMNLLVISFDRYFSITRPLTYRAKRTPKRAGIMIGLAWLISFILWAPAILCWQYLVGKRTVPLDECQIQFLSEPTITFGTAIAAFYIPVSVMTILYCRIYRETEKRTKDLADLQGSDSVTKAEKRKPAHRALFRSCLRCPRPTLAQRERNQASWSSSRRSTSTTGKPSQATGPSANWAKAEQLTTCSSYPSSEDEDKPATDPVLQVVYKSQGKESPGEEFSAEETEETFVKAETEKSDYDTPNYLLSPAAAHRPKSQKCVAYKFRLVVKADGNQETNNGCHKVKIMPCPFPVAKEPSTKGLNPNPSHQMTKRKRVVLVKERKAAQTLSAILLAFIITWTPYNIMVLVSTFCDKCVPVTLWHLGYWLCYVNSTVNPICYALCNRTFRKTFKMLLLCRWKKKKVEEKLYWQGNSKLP
Format: cell membranes, CHO-K1, Membrane
Details: cho-k1

substance	IC50
CARBOPLATIN	Not Active
OXALIPLATIN	Not Active
GOLD SODIUM THIOMALATE	Not Active
CISPLATIN	Not Active

---

experiment: DRUGMATRIX: Sigma2 radioligand binding (ligand: [3H] Ifenprodil); type: cell membranes, Rattus norvegicus, Wistar, Brain, Membrane; settings: Not Active = under 50% inhibition at 10 µM
measure-name: Ki

compound	result
CC(=O)CCCCn1c(=O)c2c(ncn2C)n(C)c1=O [PENTOXIFYLLINE]	Not Active
O=C1CCc2cc(OCCCCc3nnnn3C3CCCCC3)ccc2N1 [CILOSTAZOL]	Not Active
COc1cc(C(=O)NC2CCCNC2)cc(OC)c1OC (stereo not given) [TROXIPIDE]	Not Active
CC(C)(Oc1ccc(CCNC(=O)c2ccc(Cl)cc2)cc1)C(=O)O [BEZAFIBRATE]	Not Active
CC1=C(/C=C/C(C)=C/C=C/C(C)=C\C(=O)O)C(C)(C)CCC1 [ISOTRETINOIN]	Not Active
NC(=O)c1ncn([C@@H]2O[C@H](CO)[C@@H](O)[C@H]2O)n1 [RIBAVIRIN]	Not Active
Cc1ncc([N+](=O)[O-])n1CC(C)O (stereo not given) [SECNIDAZOLE]	Not Active
CC1COc2c(N3CCN(C)CC3)c(F)cc3c(=O)c(C(=O)O)cn1c23 (stereo not given) [OFLOXACIN]	Not Active
Cc1ccccc1N1CCN(CCc2nnc3n2CCCC3)CC1 [DAPIPRAZOLE]	Not Active
CN(C)CCCC1(c2ccc(F)cc2)OCc2cc(C#N)ccc21 (stereo not given) [CITALOPRAM]	Not Active

---

molecular target: Estrogen receptor beta (Homo sapiens); conditions: sf9; note: in other assays of this panel Not Active means under 50% inhibition at 10 µM
Sequence (Q92731 whole entry): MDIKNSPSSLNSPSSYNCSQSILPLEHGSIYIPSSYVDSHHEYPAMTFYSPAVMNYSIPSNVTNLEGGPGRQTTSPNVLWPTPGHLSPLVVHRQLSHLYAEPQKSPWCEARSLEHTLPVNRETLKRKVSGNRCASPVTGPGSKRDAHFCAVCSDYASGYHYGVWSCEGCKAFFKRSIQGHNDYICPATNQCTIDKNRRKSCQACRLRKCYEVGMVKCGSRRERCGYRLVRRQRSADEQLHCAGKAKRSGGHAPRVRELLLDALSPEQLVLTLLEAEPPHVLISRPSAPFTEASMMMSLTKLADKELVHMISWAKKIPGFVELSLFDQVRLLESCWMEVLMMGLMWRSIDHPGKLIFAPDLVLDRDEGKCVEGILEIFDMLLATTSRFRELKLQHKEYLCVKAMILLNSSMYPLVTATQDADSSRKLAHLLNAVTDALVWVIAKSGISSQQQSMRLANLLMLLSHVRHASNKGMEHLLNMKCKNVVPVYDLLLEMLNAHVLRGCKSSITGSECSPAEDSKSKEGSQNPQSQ

compound	measurement-target	IC50
NNc1ccccc1 [PHENYLHYDRAZINE]	Estrogen receptor beta (Homo sapiens)	Not Active
CCCC[C@@H](CC)COC(=O)c1ccccc1C(=O)OC[C@@H](CC)CCCC [BIS(2-ETHYLHEXYL)PHTHALATE]	Estrogen receptor beta (Homo sapiens)	Not Active
COC(=O)[C@@H]1[C@H]2C[C@H]3c4[nH]c5ccccc5c4CCN3C[C@@H]2CC[C@@H]1O [YOHIMBINE]	Estrogen receptor beta (Homo sapiens)	Not Active
C/C=C1\[C@H]2C=C(C)C[C@]1(N)c1ccc(=O)[nH]c1C2 [HUPERZINE A]	Estrogen receptor beta (Homo sapiens)	Not Active
CNCCC=C1c2ccccc2CCc2ccccc21 [NORTRIPTYLINE]	Estrogen receptor beta (Homo sapiens)	Not Active
Nc1nnc(-c2cccc(Cl)c2Cl)c(N)n1 [LAMOTRIGINE]	Estrogen receptor beta (Homo sapiens)	Not Active
Cc1ccc(C(=O)C(C)CN2CCCCC2)cc1 (configuration not stated) [TOLPERISONE]	Estrogen receptor beta (Homo sapiens)	Not Active

---

biological target: Mu-type opioid receptor (Homo sapiens, UniProt P35372); experiment: DRUGMATRIX: Opiate mu (OP3, MOP) radioligand binding (ligand: [3H] Diprenorphine); format: cell membranes, CHO-K1, Membrane; settings: Not Active = under 50% inhibition at 10 µM; read-out: IC50
Sequence (P35372 whole entry): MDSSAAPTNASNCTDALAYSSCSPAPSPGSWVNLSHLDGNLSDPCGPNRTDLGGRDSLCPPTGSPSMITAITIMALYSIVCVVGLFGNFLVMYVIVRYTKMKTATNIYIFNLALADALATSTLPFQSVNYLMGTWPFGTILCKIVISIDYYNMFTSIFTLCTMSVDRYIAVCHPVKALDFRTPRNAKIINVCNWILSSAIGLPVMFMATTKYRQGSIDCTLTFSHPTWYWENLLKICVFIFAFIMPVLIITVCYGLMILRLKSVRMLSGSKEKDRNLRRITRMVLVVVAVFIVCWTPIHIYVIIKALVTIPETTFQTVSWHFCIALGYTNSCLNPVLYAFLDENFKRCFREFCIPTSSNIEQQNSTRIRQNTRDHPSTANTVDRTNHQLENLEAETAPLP
pIC50: −log10 of the molar value.

chemical-string	pIC50
Oc1c(Cl)cc(Cl)cc1Sc1cc(Cl)cc(Cl)c1O	5.26

---

IC50 values for the compounds below.
Biological target: Angiotensin-converting enzyme (Oryctolagus cuniculus);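 note: enzymatic inhibition of angiotensin-converting enzyme measured with FAPGG as the substrate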; note: in other assays of this panel Not Active means under 50% inhibition at 10 µM
Sequence (P12822 whole entry): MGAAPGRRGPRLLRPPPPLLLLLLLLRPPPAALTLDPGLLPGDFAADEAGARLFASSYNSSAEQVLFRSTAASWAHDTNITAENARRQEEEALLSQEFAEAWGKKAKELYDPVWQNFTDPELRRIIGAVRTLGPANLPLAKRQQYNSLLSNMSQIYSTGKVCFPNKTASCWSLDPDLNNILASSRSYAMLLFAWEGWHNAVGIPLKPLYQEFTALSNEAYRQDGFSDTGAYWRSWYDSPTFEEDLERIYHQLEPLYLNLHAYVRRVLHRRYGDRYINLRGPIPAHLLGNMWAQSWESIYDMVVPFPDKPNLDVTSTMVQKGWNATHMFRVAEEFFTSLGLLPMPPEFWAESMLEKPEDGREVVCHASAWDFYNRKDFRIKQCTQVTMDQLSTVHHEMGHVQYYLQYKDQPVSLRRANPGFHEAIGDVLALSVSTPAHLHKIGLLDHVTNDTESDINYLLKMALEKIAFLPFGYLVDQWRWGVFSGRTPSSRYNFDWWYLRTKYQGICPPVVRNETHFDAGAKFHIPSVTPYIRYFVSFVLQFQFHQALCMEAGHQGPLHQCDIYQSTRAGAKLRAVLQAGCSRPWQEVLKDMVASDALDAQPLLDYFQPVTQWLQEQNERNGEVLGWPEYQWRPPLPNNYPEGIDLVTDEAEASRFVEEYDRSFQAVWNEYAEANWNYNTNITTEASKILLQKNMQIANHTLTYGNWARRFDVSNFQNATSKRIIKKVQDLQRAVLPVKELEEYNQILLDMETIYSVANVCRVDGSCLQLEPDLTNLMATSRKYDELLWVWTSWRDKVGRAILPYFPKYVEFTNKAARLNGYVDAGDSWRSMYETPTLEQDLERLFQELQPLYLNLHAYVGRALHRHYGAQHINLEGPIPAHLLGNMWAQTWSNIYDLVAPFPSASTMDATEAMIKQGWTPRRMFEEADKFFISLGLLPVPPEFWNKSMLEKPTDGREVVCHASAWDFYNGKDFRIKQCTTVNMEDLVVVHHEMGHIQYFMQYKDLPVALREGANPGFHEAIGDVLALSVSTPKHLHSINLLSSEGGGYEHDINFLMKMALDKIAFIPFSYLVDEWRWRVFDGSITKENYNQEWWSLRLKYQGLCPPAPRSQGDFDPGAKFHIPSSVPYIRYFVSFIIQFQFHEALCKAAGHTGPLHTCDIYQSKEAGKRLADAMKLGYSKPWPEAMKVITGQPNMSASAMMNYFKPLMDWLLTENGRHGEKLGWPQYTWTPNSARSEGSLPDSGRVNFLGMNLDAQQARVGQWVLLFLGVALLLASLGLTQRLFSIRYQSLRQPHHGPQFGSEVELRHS
Assay: biochemical
Type: tissue-based, Lung
Settings: read-out: IC50
measure-name: IC50 (nM)

compound	units-text	measured-number
NCCCC[C@H](N[C@@H](CCc1ccccc1)C(=O)O)C(=O)N1CCC[C@H]1C(=O)O [LISINOPRIL ANHYDROUS]	nM	6.04
Oc1c(I)cc(I)c2cccnc12 [IODOQUINOL]	nM	906

---

molecular target: Alpha-1B adrenergic receptor (Rattus norvegicus, UniProt P15823); assay: DRUGMATRIX: Alpha-1B adrenergic receptor radioligand binding (ligand: prazosin); format: cell membranes, Wistar, Liver, Membrane; details: Not Active = under 50% inhibition at 10 µM; read-out: Ki
Sequence (P15823 whole entry): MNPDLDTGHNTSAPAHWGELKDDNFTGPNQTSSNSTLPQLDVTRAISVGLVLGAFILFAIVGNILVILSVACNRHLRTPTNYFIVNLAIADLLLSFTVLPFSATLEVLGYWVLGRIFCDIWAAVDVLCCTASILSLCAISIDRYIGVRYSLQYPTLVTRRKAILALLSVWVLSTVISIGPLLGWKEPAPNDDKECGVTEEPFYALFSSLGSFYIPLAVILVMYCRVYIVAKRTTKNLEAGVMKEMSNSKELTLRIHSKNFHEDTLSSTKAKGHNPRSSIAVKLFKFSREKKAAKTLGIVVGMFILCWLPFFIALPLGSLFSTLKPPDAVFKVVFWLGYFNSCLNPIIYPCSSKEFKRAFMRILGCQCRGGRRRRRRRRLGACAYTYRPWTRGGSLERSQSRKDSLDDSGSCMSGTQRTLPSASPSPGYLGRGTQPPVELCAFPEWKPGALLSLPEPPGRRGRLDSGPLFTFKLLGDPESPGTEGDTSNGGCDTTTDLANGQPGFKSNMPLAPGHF
measure-name: log10(Ki) (log10 of the value in nM)

compound	measure-name	measured-number
CNCCC=C1c2ccccc2CCc2ccccc21	log10(Ki)	2.06
CN(C)CCCC1(c2ccc(F)cc2)OCc2cc(C#N)ccc21 (stereo unspecified)	log10(Ki)	3.26
CC(CCc1ccccc1)NCC(O)c1ccc(O)c(C(N)=O)c1 (stereo unspecified)	log10(Ki)	2.51
COC(=O)[C@@H]1[C@H]2C[C@H]3c4[nH]c5ccccc5c4CCN3C[C@@H]2CC[C@@H]1O	log10(Ki)	2.82
CC[C@H]1OC(=O)[C@H](C)[C@@H](O[C@H]2C[C@@](C)(OC)[C@@H](O)[C@H](C)O2)[C@H](C)[C@@H](O[C@@H]2O[C@H](C)C[C@H](N(C)C)[C@H]2O)[C@](C)(O)C[C@@H](C)/C(=N\OCOCCOC)[C@H](C)[C@@H](O)[C@]1(C)O	log10(Ki)	2.74
CN1C[C@H](C(=O)N[C@]2(C)O[C@@]3(O)[C@@H]4CCCN4C(=O)[C@H](Cc4ccccc4)N3C2=O)C=C2c3cccc4[nH]cc(c34)C[C@H]21	log10(Ki)	0.66
